# MFI per record follows
Target: T1, human Sortilin expressed on 293 / HEK293T cells (human, UniProt Q99523 78-830)
T1 construct: full-length recombinant human Sortilin; also called hSort; SORT1
Experiment: FACS, 293 cells;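 also: antibodies at 10 µg/ml bound to cells for 1 h on ice, detected with PE-labelled anti-human secondary antibody by flow cytometry, reported as mean fluorescence intensity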
Answer field: number only, no words.

Consider the reported MFI for these binders:
| Binder | Parameter | Reported measurement |
| --- | --- | --- |
| S-83 (antibody, V domains shown, IgG) VH: QLQLQESGPGLVKPSETLSLTCTVSGGSISSSSYYWGWIRQPPGKGLEWIGSIYYSGSTYYNPSLKSRVTISVDTSKNQFSLKLSSVTAADTAVYYCARGSPTWLRDYYMDVWGKGTTVTVSS VL: EIVLTQSPATLSVSPGERATLSCRASQSVSSNLAWYQQKPGQAPRLLIYGASTRATGIPARFSGSGSGTEFTLTISSLQSEDFAVYYCQQYNAFPPTFGGGTKVEIK | MFI | 9300 |
| S-14 (antibody, V domains shown, IgG) VH: QVQLVQSGAEVKKPGASVKVSCKASGYTFTSYYMSWVRQAPGQGLEWMGIINPSGGSTSYAQKFQGRVTMTRDTSTSTVYMELSSLRSEDTAVYYCARDPSGIAAAGPASRYYYGMDVWGQGTTVTVSS VL: DIQMTQSPSSLSASVGDRVTITCRASQSISSYLNWYQQKPGKAPKLLIYGASSLQSGVPSRFSGSGSGTDFTLTISSLQPEDFATYYCQQHYVGPFTFGGGTKVEIK | MFI | 8010 |

Lab note: next binder to report on.
State the recorded MFI for this entry: S-15 (antibody, V domains shown, IgG) VH: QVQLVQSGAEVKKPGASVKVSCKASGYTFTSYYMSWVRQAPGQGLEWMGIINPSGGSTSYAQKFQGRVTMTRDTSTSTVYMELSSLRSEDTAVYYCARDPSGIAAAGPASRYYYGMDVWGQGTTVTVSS VL: EIVMTQSPATLSVSPGERATLSCRASQSVSSNLAWYQQKPGQAPRLLIYGASTRATGIPARFSGSGSGTEFTLTISSLQSEDFAVYYCQQARLGPWTFGGGTKVEIK
8740
